- protocol_summary: MMV: MTT Cytotoxicity Assay Day 3 pi, U87-CD4-CXCR4 cells, % cell death @ 5mM compound
- Type: toxicity, cell-based
- measurement_setup: human, u87-cd4-cxcr4, 5000 µM
assay_endpoint: % Cell Death

[[record]]
molecule = "O=C(Nc1ccsc1C(=O)NC1CCCCC1)c1ccc(F)cc1"
assay_endpoint = "% Cell Death"
recorded_measurement = 8

[[record]]
molecule = "Cc1sc2ncnc(Sc3nc4ccccc4[nH]3)c2c1C"
assay_endpoint = "% Cell Death"
recorded_measurement = 18

[[record]]
molecule = "Cl.c1ccc2c(NCCCCCCNc3c4c(nc5ccccc35)CCCC4)c3c(nc2c1)CCCC3"
assay_endpoint = "% Cell Death"
recorded_measurement = 32

[[record]]
molecule = "CCc1ccc(Nc2cc(C)nc3nc(C)nn23)cc1"
assay_endpoint = "% Cell Death"
recorded_measurement = 46

[[record]]
molecule = "CCCCCn1c(=N)n(CC(O)COc2cccc(C)c2)c2ccccc21.Cl (configuration not stated)"
assay_endpoint = "% Cell Death"
recorded_measurement = 71

[[record]]
molecule = "CCOc1ccc(-n2cc(-c3ccccc3)c3c(SCc4cc(C)ccc4C)ncnc32)cc1"
assay_endpoint = "% Cell Death"
recorded_measurement = 29

[[record]]
molecule = "COc1ccc(-c2cc3c(SCC(=O)Nc4cc(C(F)(F)F)ccc4Cl)nccn3n2)cc1"
assay_endpoint = "% Cell Death"
recorded_measurement = 41

[[record]]
molecule = "Oc1ccc(C(=C(Cl)Cl)c2ccc(O)cc2)cc1"
assay_endpoint = "% Cell Death"
recorded_measurement = 75

[[record]]
molecule = "CCOc1ccc(C2N(C)c3ccccc3N2C)cc1"
assay_endpoint = "% Cell Death"
recorded_measurement = 79

[[record]]
molecule = "COc1ccc(C=C2SC(=N)N(c3ccccc3OC)C2=O)cc1"
assay_endpoint = "% Cell Death"
recorded_measurement = 101

[[record]]
molecule = "CCOc1cc(Cl)c(C(C)NC(=O)c2ccccc2)cc1OCC (configuration not stated)"
assay_endpoint = "% Cell Death"
recorded_measurement = 34

[[record]]
molecule = "CCCCCCc1cc2cc(-c3nc4ccccc4[nH]3)c(=Nc3ccccc3C)oc2cc1O"
assay_endpoint = "% Cell Death"
recorded_measurement = 25

[[record]]
molecule = "CN1CCN(c2c3c(c(C#N)c4nc5ccccc5n24)CCC3)CC1"
assay_endpoint = "% Cell Death"
recorded_measurement = -10

[[record]]
molecule = "Cn1c(=O)c2cc(C(=O)NCCCN3CCCCCC3)sc2c2ccccc21"
assay_endpoint = "% Cell Death"
recorded_measurement = 29

[[record]]
molecule = "O=C(Nc1nc(-c2ccccn2)cs1)c1ccccc1Br"
assay_endpoint = "% Cell Death"
recorded_measurement = 28

[[record]]
molecule = "Clc1ccc2[nH]c3c(NCCCN4CCOCC4)ncnc3c2c1"
assay_endpoint = "% Cell Death"
recorded_measurement = 100

[[record]]
molecule = "O=C(O)C(=O)O.Oc1ccccc1CN1CCN(C(c2ccccc2)c2ccccc2)CC1"
assay_endpoint = "% Cell Death"
recorded_measurement = 12

[[record]]
molecule = "CCC(c1ccccc1)c1nn2c(-c3cccs3)nnc2s1 (configuration not stated)"
assay_endpoint = "% Cell Death"
recorded_measurement = 41

[[record]]
molecule = "CCOC(=O)c1c(C)n(-c2ccccc2)c2ccc(OC(=O)c3cc(OC)c(OC)c(OC)c3)cc12"
assay_endpoint = "% Cell Death"
recorded_measurement = 34

[[record]]
molecule = "O=C(NC1CCN(Cc2ccccc2)CC1)c1cc2nc(-c3ccc(Cl)s3)cc(C(F)(F)F)n2n1"
assay_endpoint = "% Cell Death"
recorded_measurement = 31

[[record]]
molecule = "CC1=C(CC(=O)c2cccc([N+](=O)[O-])c2)C(=O)c2ccccc2C1=O"
assay_endpoint = "% Cell Death"
recorded_measurement = 76

[[record]]
molecule = "CCCc1c(C)nc2ccccc2c1O"
assay_endpoint = "% Cell Death"
recorded_measurement = 8


----------
- protocol_summary: MMV: MTT Cytotoxicity Assay Day 3 pi, U87-CD4-CXCR4 cells, % cell death @ 5mM compound
- Format: toxicity, cell-based
- measurement_setup: human, u87-cd4-cxcr4, 5000 µM
Below is a list of entries, each paired with its recorded % Cell Death value.
assay_endpoint: % Cell Death

[[record]]
compound = "COc1cccc(C(=O)Nc2ccc(-c3nc4ccccc4[nH]3)cc2)c1"
assay_endpoint = "% Cell Death"
recorded_measurement = 39

[[record]]
compound = "c1ccc2cc3c(Nc4ccc(N5CCOCC5)cc4)ccnc3cc2c1"
assay_endpoint = "% Cell Death"
recorded_measurement = 97

[[record]]
compound = "CCCCOC(=O)c1ccc(Nc2cc(C)nc3ccc(OC)cc23)cc1"
assay_endpoint = "% Cell Death"
recorded_measurement = 30

[[record]]
compound = "Cc1cc(Nc2ccc(C)c(Cl)c2)n2nc(C(F)(F)F)nc2n1"
assay_endpoint = "% Cell Death"
recorded_measurement = 28

[[record]]
compound = "O=C(NC1CCN(Cc2ccccc2)CC1)c1cc(-c2cccnc2)nc2ccc(Cl)cc12"
assay_endpoint = "% Cell Death"
recorded_measurement = 34

[[record]]
compound = "CCN(CC)CCNc1ccnc2cc(Cl)ccc12"
assay_endpoint = "% Cell Death"
recorded_measurement = 36

[[record]]
compound = "CCCCc1ccc(NS(=O)(=O)c2cc3c4c(c2)CCN4C(=O)CC3)cc1"
assay_endpoint = "% Cell Death"
recorded_measurement = 20

[[record]]
compound = "CCC(C)NCC(O)(c1ccc(Cl)cc1)c1ccc(Cl)cc1 (stereo not given)"
assay_endpoint = "% Cell Death"
recorded_measurement = 23

[[record]]
compound = "CCOC(=O)C1=CN(C)C=C(C(=O)OCC)C1c1cc(Br)c(OCC)c(OC)c1"
assay_endpoint = "% Cell Death"
recorded_measurement = 32

[[record]]
compound = "O=[N+]([O-])c1ccc(C=NNc2nc3ccccc3[nH]2)cc1"
assay_endpoint = "% Cell Death"
recorded_measurement = 6

[[record]]
compound = "O=C1CC(O)(C(F)(F)C(F)(F)F)Oc2ccccc21 (stereo not given)"
assay_endpoint = "% Cell Death"
recorded_measurement = 32

[[record]]
compound = "Cc1ccc(-c2cc3c(nn2)-c2ccccc2C3=O)cc1"
assay_endpoint = "% Cell Death"
recorded_measurement = 57

[[record]]
compound = "COc1ccccc1NC1=C(N2CCCCC2)C(=O)c2ccccc2C1=O"
assay_endpoint = "% Cell Death"
recorded_measurement = 15

[[record]]
compound = "CCOC(=O)C1=C(C)N=c2sc(=Cc3cc(Cl)ccc3O)c(=O)n2C1c1ccc(OC)cc1 (stereo not given)"
assay_endpoint = "% Cell Death"
recorded_measurement = 15

[[record]]
compound = "C[n+]1c2ccccc2nc2ccc(NCCO)cc21"
assay_endpoint = "% Cell Death"
recorded_measurement = 11

[[record]]
compound = "O=C(NC(c1ccccc1)c1ccc2cccnc2c1O)c1ccccc1 (stereo not given)"
assay_endpoint = "% Cell Death"
recorded_measurement = 12

[[record]]
compound = "COc1ccc(C2NCCc3c2[nH]c2ccccc32)cc1CN1CCN(c2ccc(F)cc2)CC1.Cl (stereo not given)"
assay_endpoint = "% Cell Death"
recorded_measurement = 35

[[record]]
compound = "COc1ccc(CN2CCCC(C(=O)c3ccc(C(F)(F)F)cc3)C2)c(O)c1 (stereo not given)"
assay_endpoint = "% Cell Death"
recorded_measurement = 89

[[record]]
compound = "O=C(Nc1ccc(-c2nc3ccccc3[nH]2)cc1)c1ccc(Cl)c(Cl)c1"
assay_endpoint = "% Cell Death"
recorded_measurement = 39

[[record]]
compound = "O=c1nc(C=Cc2ccc(Br)cc2)oc2ccccc12"
assay_endpoint = "% Cell Death"
recorded_measurement = 23

[[record]]
compound = "CCCCOc1ccc(C(=O)Nc2cc(C)on2)cc1"
assay_endpoint = "% Cell Death"
recorded_measurement = 31

[[record]]
compound = "CCn1c(SCC(=O)Nc2cc(C(F)(F)F)ccc2Cl)nc2ccccc2c1=O"
assay_endpoint = "% Cell Death"
recorded_measurement = 81

[[record]]
compound = "COc1ccc(-c2nonc2NC(=O)c2cccc(Cl)c2)cc1OC"
assay_endpoint = "% Cell Death"
recorded_measurement = 45

[[record]]
compound = "CCOc1cc(CNC(C)C(O)c2ccccc2)cc(Cl)c1OCC (stereo not given)"
assay_endpoint = "% Cell Death"
recorded_measurement = 89

[[record]]
compound = "CCN1CCN(c2c(C(=O)c3ccccc3)cnc3cc(OC)c(OC)cc23)CC1"
assay_endpoint = "% Cell Death"
recorded_measurement = 85

[[record]]
compound = "CC(=O)c1ccc(NC(=O)CSc2nc(-c3ccccc3Cl)ns2)cc1"
assay_endpoint = "% Cell Death"
recorded_measurement = 51

[[record]]
compound = "CCCCc1c(CCC)c(=N)c2ccccc2n1C.I"
assay_endpoint = "% Cell Death"
recorded_measurement = 21

[[record]]
compound = "CCOC(=O)c1cnc2ccc(Cl)cc2c1NCCCN(C)C"
assay_endpoint = "% Cell Death"
recorded_measurement = 26

[[record]]
compound = "CC(C)CNC(=O)c1c(N)n(CCc2ccccc2F)c2nc3ccccc3nc12"
assay_endpoint = "% Cell Death"
recorded_measurement = 47

[[record]]
compound = "COc1cc2cc(C(=O)Nc3ccccc3)c(N)nc2cc1OC"
assay_endpoint = "% Cell Death"
recorded_measurement = 43

[[record]]
compound = "COC(=O)c1ccc(Cl)c2c1C1C=CCC1C(c1cccc3ccccc13)N2 (stereo not given)"
assay_endpoint = "% Cell Death"
recorded_measurement = 40

[[record]]
compound = "CN1CCN(c2ccc(Nc3c4ccccc4nc4ccccc34)cc2)CC1"
assay_endpoint = "% Cell Death"
recorded_measurement = 22

[[record]]
compound = "COc1ccc(C(=O)C2CC2c2ccc(Cl)cc2)cc1 (stereo not given)"
assay_endpoint = "% Cell Death"
recorded_measurement = 29

[[record]]
compound = "O=C(NCC1Cc2cccc(-c3ccncc3)c2O1)c1csc2c1CCCC2 (stereo not given)"
assay_endpoint = "% Cell Death"
recorded_measurement = 2

[[record]]
compound = "CCCCCCc1cc(O)c2c3c(c(=O)oc2c1)CCC(C)C3 (stereo not given)"
assay_endpoint = "% Cell Death"
recorded_measurement = 20

[[record]]
compound = "CCOc1cc2c(cc1OCC)C(c1cc(Cl)c(O)c(OCC)c1)NCC2 (stereo not given)"
assay_endpoint = "% Cell Death"
recorded_measurement = 15

[[record]]
compound = "OC(CNC1CCCC1)Cn1c2ccccc2c2ccccc21 (stereo not given)"
assay_endpoint = "% Cell Death"
recorded_measurement = 31

[[record]]
compound = "CC(C)CCNCC(O)Cn1c2ccccc2c2ccccc21.Cl (stereo not given)"
assay_endpoint = "% Cell Death"
recorded_measurement = 32

[[record]]
compound = "O=C(NC1CCN(Cc2ccccc2)CC1)c1cc(-c2ccncc2)nc2ccc(Cl)cc12"
assay_endpoint = "% Cell Death"
recorded_measurement = 31

[[record]]
compound = "Cc1ccc(CSCc2ccc(C(=O)NC3CC3)o2)cc1"
assay_endpoint = "% Cell Death"
recorded_measurement = 12

[[record]]
compound = "Cc1ccc(-c2cc(C(=O)Nc3ccc(S(=O)(=O)N4CCCCC4)cc3)[nH]n2)c(O)c1"
assay_endpoint = "% Cell Death"
recorded_measurement = 11

[[record]]
compound = "CC1CCN(Cc2c(O)ccc3cc(-c4nc5ccccc5s4)c(=O)oc23)CC1"
assay_endpoint = "% Cell Death"
recorded_measurement = 33

[[record]]
compound = "CC(=O)NCCc1nc2ccccc2n1Cc1ccc(C(C)C)cc1"
assay_endpoint = "% Cell Death"
recorded_measurement = 15

[[record]]
compound = "Cc1cccc(N2C(=O)C3C(C2=O)C2(c4ccccc4)C(=O)C3(c3ccccc3)C(c3ccc4c(c3)OCO4)=C2c2ccc3c(c2)OCO3)c1 (stereo not given)"
assay_endpoint = "% Cell Death"
recorded_measurement = 35

[[record]]
compound = "COc1ccccc1C(=O)ON=C(N)Cc1cccc2ccccc12"
assay_endpoint = "% Cell Death"
recorded_measurement = 47


// provenance: ChEMBL document CHEMBL3301472
